- procedure_summary: Half life in rat
- Type: ADME, organism-based
- run_conditions: in vivo
test_readout: half-life (h)

- compound_structure_string: "CC(C)(C)c1cc(NC(=O)Cn2cc(-c3ccc(-n4ccnc4)nc3)nn2)n(-c2cccnc2)n1"
  test_readout: "half-life"
  units_label: "h"
  result_number: 2.6

* * *

pKd: −log10 of the molar value.
List of pKd tested on High affinity nerve growth factor receptor (Homo sapiens, UniProt P04629).
Sequence (P04629 whole entry): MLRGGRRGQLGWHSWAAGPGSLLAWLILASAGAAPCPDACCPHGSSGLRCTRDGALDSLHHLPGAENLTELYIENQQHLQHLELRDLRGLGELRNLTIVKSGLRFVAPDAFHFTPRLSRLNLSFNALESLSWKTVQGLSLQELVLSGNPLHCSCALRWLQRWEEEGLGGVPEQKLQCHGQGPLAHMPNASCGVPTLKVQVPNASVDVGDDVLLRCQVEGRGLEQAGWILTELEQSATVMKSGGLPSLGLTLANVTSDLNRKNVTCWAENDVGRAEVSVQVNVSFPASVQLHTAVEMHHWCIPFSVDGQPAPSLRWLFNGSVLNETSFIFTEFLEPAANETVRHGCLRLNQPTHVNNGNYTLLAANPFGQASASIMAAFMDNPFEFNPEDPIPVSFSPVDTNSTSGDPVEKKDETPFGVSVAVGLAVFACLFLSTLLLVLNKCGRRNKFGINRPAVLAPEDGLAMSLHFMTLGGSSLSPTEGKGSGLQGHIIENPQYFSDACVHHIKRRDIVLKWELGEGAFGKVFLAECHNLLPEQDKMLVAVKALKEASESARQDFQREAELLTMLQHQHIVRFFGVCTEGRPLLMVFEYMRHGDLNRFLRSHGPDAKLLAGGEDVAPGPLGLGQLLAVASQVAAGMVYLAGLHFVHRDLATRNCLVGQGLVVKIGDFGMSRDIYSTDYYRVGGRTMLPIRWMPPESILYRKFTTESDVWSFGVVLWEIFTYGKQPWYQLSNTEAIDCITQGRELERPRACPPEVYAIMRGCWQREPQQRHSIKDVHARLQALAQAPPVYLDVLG
test_readout: pKd

- compound_structure_string: "CC(C)N(Cc1cccc(-c2nccs2)c1)C(=O)Nc1ccc(OC(F)(F)F)cc1"
  result_number: 7.20
- compound_structure_string: "CC(C)(C)c1cc(NC(=O)Cn2cc(-c3ccc(-n4ccnc4)nc3)nn2)n(-c2cccnc2)n1"
  result_number: 9.03
